Measured Post-emergence action against TRZAS (crop plant compatibility), listed per entry.
- Test system: Triticum aestivum (TRZAS)
- assay.notes: Post-emergence crop plant compatibility, greenhouse pot test
- Assay type: in vivo
- reported.conditions: 1.25 g/ha, vs untreated controls
// note: answer is a bare numeric in %

Solved entries:
[[record]]
compound = "COCCOCCOC(=O)COc1ccccc1Oc1cc(-n2c(=O)cc(C(F)(F)F)n(C)c2=O)c(F)cc1Cl"
quantitative_readout = 10

[[record]]
compound = "COCCOCCOC(=O)COc1ccc(F)cc1Oc1cc(-n2c(=O)cc(C(F)(F)F)n(C)c2=O)c(F)cc1Cl"
quantitative_readout = 20

[[record]]
compound = "Cn1c(C(F)(F)F)cc(=O)n(-c2cc(Oc3c(F)cccc3OCC(=O)OCC#N)c(Cl)cc2F)c1=O"
quantitative_readout = 20


Form entry - test system: Triticum aestivum (TRZAS); read-out: Post-emergence action against TRZAS (crop plant compatibility); compound: Cn1c(C(F)(F)F)cc(=O)n(-c2cc(Oc3ccccc3OCC(=O)OCC3CCCO3)c(Cl)cc2F)c1=O (stereo not shown)
0
